test system: NCI-H1755; test: relative viability (nuclei count vs DMSO), 5 days (fraction); higher = more cells survive; details: first compound 0.1265 µM
Documented relative viability across a set of compounds

>  <compound>
COc1cc(N2CCC(C(N)=O)CC2)ccc1Nc1nc(N)c(Cl)c(Nc2ccccc2S(=O)(=O)C(C)C)n1 [HG-5-88-01] + Cc1cc(Nc2cc(N3CCN(C)CC3)nc(Sc3ccc(NC(=O)C4CC4)cc3)n2)n[nH]1 [Tozasertib] (partner 0.1 µM)

>  <relative viability>
0.589

$$$$
>  <compound>
COc1cc(N2CCC(C(N)=O)CC2)ccc1Nc1nc(N)c(Cl)c(Nc2ccccc2S(=O)(=O)C(C)C)n1 [HG-5-88-01] + Nc1ncn([C@H]2C[C@H](O)[C@@H](CO)O2)c(=O)n1 [Decitabine] (partner 2 µM)

>  <relative viability>
0.732

$$$$
>  <compound>
C[C@@H]1CN(CC(=O)Nc2ccc3c(c2)Cc2cccc(-c4cc(=O)cc(N5CCOCC5)o4)c2S3)C[C@H](C)O1 + CC1(C)CCC(c2ccc(Cl)cc2)=C(CN2CCN(c3ccc(C(=O)NS(=O)(=O)c4ccc(N[C@H](CCN5CCOCC5)CSc5ccccc5)c(S(=O)(=O)C(F)(F)F)c4)cc3)CC2)C1 [Navitoclax] (partner 0.5 µM)

>  <relative viability>
0.945

$$$$
>  <compound>
COc1cc(N2CCC(C(N)=O)CC2)ccc1Nc1nc(N)c(Cl)c(Nc2ccccc2S(=O)(=O)C(C)C)n1 [HG-5-88-01] + CC(=O)c1c(C)c2cnc(Nc3ccc(N4CCNCC4)cn3)nc2n(C2CCCC2)c1=O [Palbociclib] (partner 0.5 µM)

>  <relative viability>
0.494

$$$$
>  <compound>
COc1cc(N2CCC(C(N)=O)CC2)ccc1Nc1nc(N)c(Cl)c(Nc2ccccc2S(=O)(=O)C(C)C)n1 [HG-5-88-01] + NC(=O)Nc1cc(-c2cccc(F)c2)sc1C(=O)N[C@H]1CCCNC1 [AZD7762] (partner 0.2 µM)

>  <relative viability>
0.476

$$$$
>  <compound>
COc1cc(N2CCC(C(N)=O)CC2)ccc1Nc1nc(N)c(Cl)c(Nc2ccccc2S(=O)(=O)C(C)C)n1 [HG-5-88-01] + C[C@@H](Oc1cc(-c2cnn(C3CCNCC3)c2)cnc1N)c1c(Cl)ccc(F)c1Cl [Crizotinib] (partner 1 µM)

>  <relative viability>
0.86

$$$$
